# measured-on: Nicotinamide N-methyltransferase (Homo sapiens) (UniProt P40261)
# Sequence (P40261 whole entry, looked up): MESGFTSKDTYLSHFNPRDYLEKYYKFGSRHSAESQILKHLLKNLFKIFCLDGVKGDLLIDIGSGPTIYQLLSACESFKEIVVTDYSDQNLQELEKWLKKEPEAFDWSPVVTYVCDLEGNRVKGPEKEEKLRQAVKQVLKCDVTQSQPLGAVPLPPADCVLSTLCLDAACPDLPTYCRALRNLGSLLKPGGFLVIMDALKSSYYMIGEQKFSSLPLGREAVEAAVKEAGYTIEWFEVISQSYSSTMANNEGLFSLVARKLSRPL
# test-protocol: Primary Screen for Target Class Profiling of Small Molecule Inhibitors of Methyltransferases; also: % is scaled to controls: 0 for no effect and ±100 for the full control effect
# experimental-parameters: purified enzyme, MTase-Glo SAH luminescence; measured here: NNMT inhibition; at 40 µM; stronger effect = lower value
Hit rate of the full screen: of about 25,000 compounds, about 970 (3.9%) were called active. Inconclusive results (about 8%) are left out. The entries come from a sample that favours actives as a whole.
property-measured: activity change, negative = inhibition (%)
Value expressed in %; do not type the unit.

Task item: What does the record list as activity change, negative = inhibition for "O=C(C1CC1)N1CCn2c(nn(-c3ccc(F)cc3)c2=O)C1" ?
Reply: -9.2

Task item: What does the record list as activity change, negative = inhibition for CCCn1c(=O)c2ccc(C(=O)NC(C)CC)cc2n2c(=O)n(CC(=O)Nc3ccccc3)nc12 (stereo not given) ?
Reply: -0.601

Task item: What does the record list as activity change, negative = inhibition for "COc1cc(O)c(C(=O)CCc2ccc(O)cc2)c(O[C@@H]2O[C@H](CO)[C@@H](O)[C@H](O)[C@H]2O)c1" ?
Reply: -20.7

Task item: What does the record list as activity change, negative = inhibition for CC(=O)c1cnc2ccc(-c3cc(Cl)c(O)c(Cl)c3)nc2c1NC1CCC(CN(C)C)CC1 (stereo not given) ?
Reply: -14.2

Task item: What does the record list as activity change, negative = inhibition for COc1cccc(C(=O)N(CC(C)C)CC2CN(C(=O)Nc3ccccc3)CCO2)c1 (stereo not given) ?
Reply: -7.14

* * *

# measured-on: Catechol O-methyltransferase (Homo sapiens)
# test-protocol: Primary Screen for Target Class Profiling of Small Molecule Inhibitors of Methyltransferases; also: % is scaled to controls: 0 for no effect and ±100 for the full control effect
# experimental-parameters: purified enzyme, MTase-Glo SAH luminescence; at 40 µM
Out of some 25,000 compounds screened, about 970 (3.9%) were called active. Roughly 8% stayed inconclusive and do not appear here. How the calls were made is not given here. For the sample, actives were picked, then their nearest neighbours and some compounds at random.
API: response.call in true (1) = active, false (0) = inactive

# molecule, measured-on, assigned-class
records = [
    ("COc1ccccc1NC(=O)CSc1nnc2[nH]c(=O)c(C(C)(C)C)nn12", "Catechol O-methyltransferase (Homo sapiens)", "false (0)"),
    ("COC(=O)c1ncn2c1C(=O)N(Cc1cc(OC)ccc1OC)C(C)(C(=O)NCc1ccccc1)C2 (configuration not stated)", "Catechol O-methyltransferase (Homo sapiens)", "false (0)"),
    ("Cc1cc2c(cc1S(=O)(=O)NCc1ccc3c(c1)OCO3)n(C)c(=O)n2C", "Catechol O-methyltransferase (Homo sapiens)", "false (0)"),
]

Task item: Could you check what this test reported for "CC(=O)N(C1CCOCC1)C1CCN(S(=O)(=O)c2ccc3c(c2)OCCO3)CC1" ?
Reply: false (0)

Task item: Could you check what this test reported for "O=C(CCc1nnc2ccc(NCCCN3CCCC3=O)nn12)NCc1ccccc1Cl" ?
Reply: false (0)

Task item: Could you check what this test reported for CCCN1C(=O)c2c(C(=O)NCc3ccc(OC(C)C)cc3)ncn2CC1(C)C(=O)NCc1ccccc1 (configuration not stated) ?
Reply: false (0)

Task item: Could you check what this test reported for CCOC(=O)c1cc2n(n1)CC(C)(C(=O)NCc1ccc(F)cc1)N(Cc1ccccc1OC)C2=O (configuration not stated) ?
Reply: false (0)

Task item: Could you check what this test reported for O=C1NC(=NC2CCCC2)C2(CCCN([S+](=O)([O-])c3ccccc3)C2)N1c1cccnc1 (configuration not stated) ?
Reply: false (0)

Task item: Could you check what this test reported for COC(=O)[C@]12C(=O)C(C)=C(O)[C@@]1(C)C(C)=CC1[C@@]34CC[C@@H](OC(C)=O)C(C)(C)C3[C@H](C[C@]12C)OC4=O (some centres not stated) ?
Reply: false (0)

Task item: Could you check what this test reported for "CCCCNC(=O)CCc1nnc2n(CC(C)C)c(=O)c3ccccc3n12" ?
Reply: false (0)

* * *

# measured-on: Guanidinoacetate N-methyltransferase (Homo sapiens) (UniProt Q14353)
# test-protocol: Primary Screen for Target Class Profiling of Small Molecule Inhibitors of Methyltransferases; also: % is scaled to controls: 0 for no effect and ±100 for the full control effect
# experimental-parameters: purified enzyme, MTase-Glo SAH luminescence; measured here: GAMT inhibition; at 40 µM; stronger effect = lower value
Screen size: about 25,000 compounds; about 970 (3.9%) were called active. Not shown: some 8% with an inconclusive outcome. Many of the other results were omitted from the sample, so actives are more common in it than they were.
The following molecules are listed with their measured activity change, negative = inhibition values.
Value expressed in %; do not type the unit.

# molecule, reported-value
records = [
    ("COc1ccc(CCN2C(=O)c3ccc(-c4ccco4)n3CC2(C)C(=O)NCc2ccc(Cl)cc2)cc1OC (stereo not given)", 1.72),
    ("CCOc1ccc(CN2C(=O)c3cc(C(C)(C)C)nn3CC2(C)C(=O)NC2CCCCCC2)cc1 (stereo not given)", 4.61),
    ("CC1CCCC(NC(=O)C2(C)Cn3c(cc4sccc43)C(=O)N2c2ccc(Cl)cc2)C1C (stereo not given)", 2.58),
    ("CC1CCC(Nc2nc3c(-c4cccc(F)c4)nnn3c3ccccc23)CC1 (stereo not given)", 0),
    ("C=C1C(=O)O[C@@H]2[C@H]1CC[C@H](C)[C@]1(CCC(=O)O1)C2(C)O (stereo not given in full)", 7.54),
]

Now for another entry.
Task item: What does the record list as activity change, negative = inhibition for "CCn1ccnc1CN(C)C(=O)c1cc(COc2ccccc2F)[nH]n1" ?
Reply: -0.135

* * *

# measured-on: Glycine N-methyltransferase (Homo sapiens) (UniProt Q14749)
# Sequence (Q14749 whole entry, looked up): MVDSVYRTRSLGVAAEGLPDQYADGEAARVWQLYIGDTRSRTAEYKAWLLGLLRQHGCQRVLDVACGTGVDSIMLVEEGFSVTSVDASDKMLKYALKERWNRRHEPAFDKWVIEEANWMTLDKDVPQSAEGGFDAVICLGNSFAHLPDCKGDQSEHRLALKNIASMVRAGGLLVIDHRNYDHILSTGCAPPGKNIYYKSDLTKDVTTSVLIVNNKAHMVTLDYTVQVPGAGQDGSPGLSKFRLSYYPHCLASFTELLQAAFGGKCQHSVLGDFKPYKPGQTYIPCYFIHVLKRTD
# test-protocol: Primary Screen for Target Class Profiling of Small Molecule Inhibitors of Methyltransferases; also: % is scaled to controls: 0 for no effect and ±100 for the full control effect
# experimental-parameters: purified enzyme, MTase-Glo SAH luminescence; measured here: GNMT inhibition; at 40 µM; stronger effect = lower value
Screen size: about 25,000 compounds; about 970 (3.9%) were called active. Not shown: some 8% with an inconclusive outcome. The list comes from a sample in which actives are over-represented; it also holds close analogues and randomly drawn compounds.
property-measured: activity change, negative = inhibition (%)
Value expressed in %; do not type the unit.

# compound, measured-on, activity change, negative = inhibition, %
measured = [
    ("CCOc1ccc(NC(=O)N2Cc3c(sc4c3CCCC4)-n3cccc3C2c2ccc(C)cc2)cc1 (stereo unspecified)", "Glycine N-methyltransferase (Homo sapiens) (UniProt Q14749)", -7.14),
]

Task item: What does the record list as activity change, negative = inhibition for "Clc1cc(NCc2ccccn2)n2nccc2n1" ?
Reply: -11.1

Task item: What does the record list as activity change, negative = inhibition for "O=C(NCc1cc2n(n1)CCCN(C1CCCCC1)C2)c1cccc(F)c1" ?
Reply: -1.07

Task item: What does the record list as activity change, negative = inhibition for "CC(C)Cn1c(=O)c2ccccc2n2c(=O)n(Cc3ccccc3)nc12" ?
Reply: -1.72

Task item: What does the record list as activity change, negative = inhibition for "CC(=O)c1ccc2c(c1)[C@H](NC(=O)c1ccc(F)c(Cl)c1)[C@H](O)C(C)(C)O2" ?
Reply: -1.85

Task item: What does the record list as activity change, negative = inhibition for "O=C(NCc1ccc2c(c1)OCO2)c1sc(=S)n2c1[nH]c(=O)c1ccccc12" ?
Reply: -52.7

Task item: What does the record list as activity change, negative = inhibition for "CCC(=O)N1Cc2ccccc2OC2(CCN(C(C)C)CC2)C1" ?
Reply: -3.35

Task item: What does the record list as activity change, negative = inhibition for COc1ccc(CN2C(=O)c3ccc(-c4ccco4)n3CC2(C)C(=O)NC2CCCCCC2)cc1 (stereo unspecified) ?
Reply: -14.7

Task item: What does the record list as activity change, negative = inhibition for "Cn1c(=O)n(C)c2cc(Nc3nc4ccccc4nc3NS(=O)(=O)c3ccc(Cl)cc3)ccc21" ?
Reply: 7.68

Task item: What does the record list as activity change, negative = inhibition for CC1(C)CC[C@]2(C(=O)O[C@@H]3O[C@H](CO)[C@@H](O)[C@H](O)[C@H]3O)CC[C@]3(C)C(=CCC4[C@@]5(C)CC[C@H](O[C@@H]6O[C@H](C(=O)O)[C@@H](O)[C@H](O)[C@H]6OC6OC(CO)C(O)C(O)C6O)C(C)(C)C5CC[C@]43C)[C@@H]2C1 (stereo partly specified) ?
Reply: 2.46

Task item: What does the record list as activity change, negative = inhibition for "COc1c(C)c(OCC=C(C)C)cc2c1C(=O)NC2=O" ?
Reply: 1.17

Task item: What does the record list as activity change, negative = inhibition for "CCCn1c(=O)c2ccc(C(=O)NC(C)C)cc2n2c(=O)n(CC(=O)NCc3ccccc3Cl)nc12" ?
Reply: 2.57

* * *

# measured-on: Catechol O-methyltransferase (Homo sapiens)
# test-protocol: Primary Screen for Target Class Profiling of Small Molecule Inhibitors of Methyltransferases; also: % is scaled to controls: 0 for no effect and ±100 for the full control effect
# experimental-parameters: purified enzyme, MTase-Glo SAH luminescence; at 40 µM, stronger effect = lower value
# Protocol: PI: Matthew D. Hall Ph.D. and Quinlin M. Hanson Ph.D. National Center for Advancing Translational Sciences (NCATS) National Institute of Health (NIH), Rockville, MD […] High-through put screening assays were developed at the National Center for Advancing Translational Science (NCATS) for the enzymes NNMT, PNMT, HNMT, GNMT, COMT, and GAMT. Enzymatic activity was measured as a function of SAM cofactor conversion using the MTase Glo kit (Promega) for all enzymes. […]
In all, about 25,000 compounds went through this assay and about 970 (3.9%) were called active. Roughly 8% stayed inconclusive and do not appear here. Shown is part of a subset that was picked to be rich in actives.
property-measured: activity change, negative = inhibition

# molecule, measured-on, activity change, negative = inhibition
records = [
    ("CCC(=O)N1Cc2ccccc2OC2(CCN(C(C)C)CC2)C1", "Catechol O-methyltransferase (Homo sapiens)", "-1.54% (inactive)"),
    ("CN1C(=O)c2cc(C(=O)N3CCN(Cc4ccccc4)CC3)nn2CC1(C)C(=O)NCc1ccccc1 (centres undefined)", "Catechol O-methyltransferase (Homo sapiens)", "1.23% (inactive)"),
    ("COc1ccccc1-c1[nH]nc2ncc(C(=O)N3CCN(Cc4ccccc4)CC3)nc12", "Catechol O-methyltransferase (Homo sapiens)", "-63.8% (active)"),
    ("COc1ccccc1N1CCN(S(=O)(=O)c2cc3c(cc2C)n(C)c(=O)n3C)CC1", "Catechol O-methyltransferase (Homo sapiens)", "8.56% (inactive)"),
    ("Clc1cc(NCc2ccccn2)n2nccc2n1", "Catechol O-methyltransferase (Homo sapiens)", "-4.71% (inactive)"),
]

Task item: Which activity change, negative = inhibition is reported with Catechol O-methyltransferase (Homo sapiens) for this entry: "COC(=O)CCc1cc2ccoc2c(OC)c1O[C@@H]1O[C@H](CO)[C@@H](O)[C@H](O)[C@H]1O" ?
Reply: 2.02% (inactive)

Task item: Which activity change, negative = inhibition is reported with Catechol O-methyltransferase (Homo sapiens) for this entry: Cc1ccc(N2C(=O)c3cc4sccc4n3CC2(C)C(=O)NC2CCCCC2C)cc1 (centres undefined) ?
Reply: -3.6% (inactive)

Task item: Which activity change, negative = inhibition is reported with Catechol O-methyltransferase (Homo sapiens) for this entry: "COc1cc(NC(=O)Nc2cccc(CNC(=O)O[C@H]3CCOC3)c2)ccc1-c1cnco1" ?
Reply: -2.73% (active)

Task item: Which activity change, negative = inhibition is reported with Catechol O-methyltransferase (Homo sapiens) for this entry: "CC(C)n1c(=O)c2ccc(C(=O)NC3CCCCC3)cc2n2c(=O)n(CC(=O)NC3CCCCC3)nc12" ?
Reply: -2.65% (inactive)

Task item: Which activity change, negative = inhibition is reported with Catechol O-methyltransferase (Homo sapiens) for this entry: "COc1ccc(-c2ncc3c(n2)OCCN(Cc2ccccc2)C3=O)cn1" ?
Reply: -3.7% (inactive)

Task item: Which activity change, negative = inhibition is reported with Catechol O-methyltransferase (Homo sapiens) for this entry: CN(Cc1cc(C2CC2)n[nH]1)C(=O)C(c1ccc(F)cc1)N(C)C (centres undefined) ?
Reply: 3.85% (inactive)
